- assay.system: full-length beta-Catenin (Uniprot ID P35222) (Homo sapiens (Human)) (UniProt P35222)
- Sequence (P35222 whole entry): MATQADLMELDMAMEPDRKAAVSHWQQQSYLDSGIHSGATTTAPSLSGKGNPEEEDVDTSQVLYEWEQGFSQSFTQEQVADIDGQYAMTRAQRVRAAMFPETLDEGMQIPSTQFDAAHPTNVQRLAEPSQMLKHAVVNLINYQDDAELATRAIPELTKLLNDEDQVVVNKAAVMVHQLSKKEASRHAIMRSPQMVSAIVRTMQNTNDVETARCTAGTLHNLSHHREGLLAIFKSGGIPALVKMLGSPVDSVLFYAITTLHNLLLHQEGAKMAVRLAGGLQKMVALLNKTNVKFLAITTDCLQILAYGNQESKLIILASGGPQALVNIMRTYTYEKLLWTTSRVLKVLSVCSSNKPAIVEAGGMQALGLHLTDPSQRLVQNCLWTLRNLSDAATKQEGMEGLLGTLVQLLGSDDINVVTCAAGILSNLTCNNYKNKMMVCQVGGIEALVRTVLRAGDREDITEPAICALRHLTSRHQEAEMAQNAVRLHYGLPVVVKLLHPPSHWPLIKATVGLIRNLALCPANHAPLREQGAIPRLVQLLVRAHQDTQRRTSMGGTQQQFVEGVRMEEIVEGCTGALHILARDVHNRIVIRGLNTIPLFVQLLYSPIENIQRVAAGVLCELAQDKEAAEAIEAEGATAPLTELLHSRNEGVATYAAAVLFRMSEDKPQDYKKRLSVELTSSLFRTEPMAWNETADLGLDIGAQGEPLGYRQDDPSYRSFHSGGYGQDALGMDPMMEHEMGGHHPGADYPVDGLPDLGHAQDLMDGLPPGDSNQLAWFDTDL
- test: FP competition: full-length beta-catenin 10 nM + 5FAM-TCF4(10-53) 10 nM
Starred links: 1 amine or outer side, 2 acyl side, 3 side chain; linkers in the order of their positions; H or OH if unused. Positions of bridges follow the written chain, without caps; N, C: chain ends. Non-standard residues stand in square brackets, D forms with d. Primed or numbered codes have the meaning given here. B5(4) = 2,2-bis(4-pentenyl)glycine = 2-amino-2-(pent-4-en-1-yl)hept-6-enoic acid (stitching residue), C=CCCCC(CCCC=C)(N[*:1])C(=O)[*:2]; B5(20) = 2-amino-2-(pent-4-en-1-yl)hept-6-enoic acid = bis(4-pentenyl)glycine, stitching residue, C=CCCCC(CCCC=C)(N[*:1])C(=O)[*:2]; Abu(4,4,4-F3) = N[C@@H](CC(F)(F)F)C(=O)O; Bta = N[C@@H](Cc1csc2ccccc12)C(=O)O; αAllylPro = C=CC[C@@]1(C(=O)O)CCCN1; 3Thi = N[C@@H](Cc1ccsc1)C(=O)O; S8 = C=CCCCCCC[C@](C)(N)C(=O)O; Abu = CC[C@H](N)C(=O)O
readout.label: IC50 (nM)

Use the examples below as a reference point.
Ac-[αAllylPro]DA[B5(4)]DEAAFQ[S8]F[Bta][Abu]-NH2 (staple 1-4, 4-11) [I-509] :: 99
Ac-[αAllylPro]DI[B5(20)]DEAAFN[S8][3Thi][Bta]Q-NH2 (staple 1-4, 4-11; also: later-eluting HPLC peak of staple isomers) [I-521] :: 23

I: Ac-[αAllylPro]DA[B5(20)]DEAAFN[S8][3Thi][Bta]H-NH2 (staple 1-4, 4-11; also: later-eluting HPLC peak of staple isomers) [I-516]
II: Ac-[αAllylPro]D[Abu(4,4,4-F3)][B5(4)]DEAAFQ[S8]F[Bta]H-NH2 (staple 1-4, 4-11) [I-504]
Param metric = IC50; output whichever of I , II has the minimum value. Selection: enter the item's label.
I
